System: MS2 coat protein
Assay: apparent KD of MS2 coat protein; designed switch direction (-1 OFF switch, 1 ON switch): -1; higher = weaker reporter binding
Settings: input ligand: FMN 200 uM
Assign class by apparent KD of MS2 coat protein: not lower than 80 nM means yes; lower than 80 nM means no.

AAAGCAAAGACAGGAUAUCGACCCAGUGAUUUUCGUGCCGGAAACAUGAGGAUCACCCAUGUGUACGAGAAGGGUCAAAACAAC [Uslebeteat] (Eterna round: R96, puzzle: Exclusion NG 2)
no
ACAAAUCAUGUAGGAUAUGCGUGGCGAAGCUAUGCAGAAGGACAUGAGGAUCACCCAUGUGCUUCCGUCUGCGUACAGACGGUA [Mat - Exclusion NG 1 - Mod of JL - D16] (Eterna round: R96, puzzle: Exclusion NG 1)
no
GCAUGCGACUGAGGAUAUGUAGUGACCUCAGUCGAGACAUGAGGAUCACCCAUGUACAGCACGUGACAGAAGGCAGCACAUGAU [Eternabot solution 14] (Eterna round: R96, puzzle: Exclusion NG 2)
no

q: Quick check, apparent KD of MS2 coat protein >= 80 nM? UUAAUUAAUUAAUUAUAAGAUCAACAUGAGGAUCACCCAUGUGAGGAUAUCAGCUCGUUUAGAGCUGAGAAGGCACAAAUAAUU [ExNG3/16-B2] (Eterna round: R96, puzzle: Exclusion NG 3)
a: yes
